# Subject Of Test: Cathepsin B (Homo sapiens, UniProt P07858)
# Test Details: Inhibition of human recombinant cathepsin B assessed as formation of fluorescent degradation product AMC using Z-Arg-Arg-AMC as substrate at 50 uM by fluorescence microplate assay
Property Name: inhibition (%)
Use % as the unit, but write only the number.

Solved entries (count: 3):
1) COc1nc(OC)nc(Sc2ccccc2C(=O)O)n1; 2.35
2) COc1ccc(CNc2nc(Cl)nc(N(C)CCO)n2)cc1; 0.92
3) COc1ccc(CCNc2nc(Cl)nc(Cl)n2)cc1OC; -9.7

Retrieve inhibition on Cathepsin B (Homo sapiens, UniProt P07858); query `COc1nc(N[C@H](CCC(=O)O)C(=O)O)nc(OC)n1`
-5.48

Retrieve inhibition on Cathepsin B (Homo sapiens, UniProt P07858); query `Cc1ccc(-c2nc(S)[nH]c(=O)n2)cc1`
9.02

Retrieve inhibition on Cathepsin B (Homo sapiens, UniProt P07858); query `COc1ccc(CNc2nc(Cl)nc(Cl)n2)cc1`
3.99

Retrieve inhibition on Cathepsin B (Homo sapiens, UniProt P07858); query `COc1ccccc1CSc1nc(SCc2ccccc2)nc(=O)[nH]1`
79.6

Retrieve inhibition on Cathepsin B (Homo sapiens, UniProt P07858); query `CCc1ccccc1Nc1nc(Cl)nc(Cl)n1`
-3.44

Retrieve inhibition on Cathepsin B (Homo sapiens, UniProt P07858); query `O=c1nc(SCc2ccccc2)nc(S)[nH]1`
2.5

Retrieve inhibition on Cathepsin B (Homo sapiens, UniProt P07858); query `COC(=O)c1ccccc1Nc1nc(Cl)nc(Cl)n1`
-0.92

Retrieve inhibition on Cathepsin B (Homo sapiens, UniProt P07858); query `CN(CCO)c1nc(Cl)nc(Nc2ccccc2CCO)n1`
-3.56

###

inhibition values by entry
# Subject Of Test: Procathepsin L (Homo sapiens) (UniProt P07711)
# Sequence (P07711 114-333 limits assumed): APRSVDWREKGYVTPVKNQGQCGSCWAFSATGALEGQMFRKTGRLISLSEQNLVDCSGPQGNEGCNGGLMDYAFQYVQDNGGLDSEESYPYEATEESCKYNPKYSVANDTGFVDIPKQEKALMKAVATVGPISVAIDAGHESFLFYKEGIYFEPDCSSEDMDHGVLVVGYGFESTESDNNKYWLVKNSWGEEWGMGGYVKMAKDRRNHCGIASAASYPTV
# Test Details: Inhibition of human recombinant cathepsin L expressed in Escherichia coli assessed as formation of fluorescent degradation product AMC using Z-Phe-Arg-AMC as substrate at 50 uM by fluorescence microplate assay
Use % as the unit, but write only the number.

Solved entries (count: 6):
1. O=c1nc(SCc2ccccc2)nc(SCC2CCCC2)[nH]1; 9.96
2. O=C(O)CSc1nc(SCc2ccccc2)nc(=O)[nH]1; -2.36
3. O=c1nc(SCc2ccccc2)nc(SCC2CCCCC2)[nH]1; 76.2
4. O=c1nc(SCc2ccccc2)nc(SCc2cccc(F)c2)[nH]1; 7.68
5. O=c1nc(SCc2ccccc2)nc(SCC2CC2)[nH]1; 42
6. O=c1nc(SCc2ccccc2)nc(SCC2CCC2)[nH]1; 37.4

Kindly indicate its recorded inhibition. Item: `CCCSc1nc(SCc2ccccc2)nc(=O)[nH]1`
-8.66

Kindly indicate its recorded inhibition. Item: `COc1nc(OC)nc(Sc2ccccc2C(=O)N[C@@H](C)C(=O)OCc2ccccc2)n1`
-4.25

Kindly indicate its recorded inhibition. Item: `Cc1ccc(-c2nc(S)[nH]c(=O)n2)cc1`
6.37

Kindly indicate its recorded inhibition. Item: `O=c1nc(SCc2ccccc2)nc(SCc2cccc([N+](=O)[O-])c2)[nH]1`
81.2

Kindly indicate its recorded inhibition. Item: `COc1ccc(CNc2nc(Cl)nc(N(C)CCO)n2)cc1`
9.95

Kindly indicate its recorded inhibition. Item: `CN(CCO)c1nc(Cl)nc(Nc2ccccc2CCO)n1`
11.6

Kindly indicate its recorded inhibition. Item: `COc1ccc(CCNc2nc(Cl)nc(Cl)n2)cc1OC`
-0.33

Kindly indicate its recorded inhibition. Item: `COc1ccc(CNc2nc(Cl)nc(Cl)n2)cc1`
0.48

Kindly indicate its recorded inhibition. Item: `N#Cc1ccc(CSc2nc(SCc3ccccc3)nc(=O)[nH]2)cc1`
44.9

###

# Subject Of Test: Procathepsin L (Homo sapiens) (UniProt P07711)
# Test Details: Inhibition of human recombinant cathepsin L expressed in Escherichia coli assessed as formation of fluorescent degradation product AMC using Z-Phe-Arg-AMC as substrate at 50 uM by fluorescence microplate assay
inhibition values by entry
Use % as the unit, but write only the number.

1) CC(C)(C)c1ccccc1Nc1nc(Cl)nc(Cl)n1; 4.36
2) COc1nc(OC)nc(Sc2ccccc2C(=O)O)n1; 15.8
3) O=c1nc(-c2ccccc2)nc(S)[nH]1; -1.89
4) Clc1nc(Cl)nc(Nc2ccccc2Br)n1; 0.59
5) CCc1ccccc1Nc1nc(Cl)nc(Cl)n1; -1.59

Kindly indicate its recorded inhibition. Item: `CC(C)OC(=O)[C@H](C)NC(=O)c1ccc(Nc2nc(Cl)nc(Cl)n2)cc1`
-6.12

###

inhibition values by entry
# Subject Of Test: UniProt:P09668
# Test Details: Inhibition of native cathepsin H isolated from human liver assessed as formation of fluorescent degradation product AMC using Arg-AMC as substrate at 50 uM by fluorescence microplate assay
Use % as the unit, but write only the number.

1. CN(CCO)c1nc(Cl)nc(Nc2ccccc2CCO)n1; 0.61

Kindly indicate its recorded inhibition. Item: `O=c1nc(SCc2ccccc2)nc(SCC2CC2)[nH]1`
10

Kindly indicate its recorded inhibition. Item: `OCCc1ccccc1Nc1nc(Cl)nc(N2CCOCC2)n1`
-8.72

Kindly indicate its recorded inhibition. Item: `COc1ccc(CCNc2nc(Cl)nc(Cl)n2)cc1OC`
-2.17

Kindly indicate its recorded inhibition. Item: `O=c1nc(-c2ccccc2)nc(S)[nH]1`
4.86

###

# Subject Of Test: Pro-cathepsin H (Homo sapiens) (UniProt P09668)
# Sequence (whole entry): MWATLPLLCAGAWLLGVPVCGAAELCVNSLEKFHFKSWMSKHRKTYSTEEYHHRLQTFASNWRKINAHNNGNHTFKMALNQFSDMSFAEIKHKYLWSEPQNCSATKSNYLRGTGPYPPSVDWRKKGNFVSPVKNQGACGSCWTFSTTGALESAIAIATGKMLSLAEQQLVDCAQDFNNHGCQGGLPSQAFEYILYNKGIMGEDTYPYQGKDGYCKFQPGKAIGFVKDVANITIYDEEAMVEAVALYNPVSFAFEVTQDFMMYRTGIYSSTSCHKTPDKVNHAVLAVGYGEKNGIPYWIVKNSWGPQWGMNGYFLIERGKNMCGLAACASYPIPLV
# Test Details: Inhibition of native cathepsin H isolated from human liver assessed as formation of fluorescent degradation product AMC using Arg-AMC as substrate at 50 uM by fluorescence microplate assay
inhibition values by entry
Use % as the unit, but write only the number.

1. CC(C)OC(=O)[C@H](C)NC(=O)c1ccc(Nc2nc(Cl)nc(Cl)n2)cc1; 3.02
2. O=C(O)c1ccccc1Sc1nc(Cl)nc(Cl)n1; -1.7
3. CCc1ccccc1Nc1nc(Cl)nc(Cl)n1; -2.26
4. N#CCSc1nc(SCc2ccccc2)nc(=O)[nH]1; 4.94
5. COC(=O)c1ccccc1Oc1nc(OC)nc(OC)n1; -5.34

Kindly indicate its recorded inhibition. Item: `CC(C)(C)c1ccccc1Nc1nc(Cl)nc(Cl)n1`
-4.16

Kindly indicate its recorded inhibition. Item: `COc1nc(N[C@H](CCC(=O)O)C(=O)O)nc(OC)n1`
0.34

Kindly indicate its recorded inhibition. Item: `COC(=O)c1ccccc1Nc1nc(Cl)nc(Cl)n1`
-4.23

Kindly indicate its recorded inhibition. Item: `CCCCSc1nc(SCc2ccccc2)nc(=O)[nH]1`
-1.81

Kindly indicate its recorded inhibition. Item: `O=c1nc(SCc2ccccc2)nc(SCc2cccc(F)c2)[nH]1`
4.18

Kindly indicate its recorded inhibition. Item: `O=C(O)CSc1nc(SCc2ccccc2)nc(=O)[nH]1`
6.89

Kindly indicate its recorded inhibition. Item: `O=c1nc(SCc2ccccc2)nc(SCC2CCCCC2)[nH]1`
10.2

Kindly indicate its recorded inhibition. Item: `CCSc1nc(SCc2ccccc2)nc(=O)[nH]1`
-4.06

Kindly indicate its recorded inhibition. Item: `COc1ccc(CNc2nc(Cl)nc(N(C)CCO)n2)cc1`
7.12

Kindly indicate its recorded inhibition. Item: `CCCSc1nc(SCc2ccccc2)nc(=O)[nH]1`
-4.82

Kindly indicate its recorded inhibition. Item: `O=c1nc(SCc2ccccc2)nc(SCc2ccc(Cl)cc2)[nH]1`
6.91

Kindly indicate its recorded inhibition. Item: `COc1nc(OC)nc(Sc2ccccc2C(=O)N[C@@H](C)C(=O)OCc2ccccc2)n1`
1.34

Kindly indicate its recorded inhibition. Item: `COc1nc(Nc2ccccc2C(=O)O)nc(OC)n1`
2.63

Kindly indicate its recorded inhibition. Item: `O=c1nc(-c2cccc([N+](=O)[O-])c2)nc(S)[nH]1`
7.97

Kindly indicate its recorded inhibition. Item: `Clc1nc(Cl)nc(Nc2ccccc2Br)n1`
4.52

Kindly indicate its recorded inhibition. Item: `N#Cc1ccc(CSc2nc(SCc3ccccc3)nc(=O)[nH]2)cc1`
1.55

Kindly indicate its recorded inhibition. Item: `O=c1nc(SCc2ccccc2)nc(SCC2CCC2)[nH]1`
1.57

Kindly indicate its recorded inhibition. Item: `O=c1nc(SCc2ccccc2)nc(SCc2cccc([N+](=O)[O-])c2)[nH]1`
3.92

Kindly indicate its recorded inhibition. Item: `COc1ccc(CNc2nc(Cl)nc(Cl)n2)cc1`
6.37

Kindly indicate its recorded inhibition. Item: `O=c1nc(SCc2ccccc2)nc(S)[nH]1`
9.63
